test: Pharmacokinetics in CD1 mice; type: in vivo, mouse; settings: male, mouse, plasma, po, P.O. 10 mg/kg
measured-parameter: MRT (h)
Your answer is read as h, so omit the unit and give the number.

Query string: MRT for C[C@H](NC(=O)c1c(Cc2ccc(F)cc2)sc2c1CCOC2)c1ccc(C(=O)O)cc1 [TP-16] ?
Result string: 3.7

====

test: Pharmacokinetics in CD1 mice; type: in vivo, mouse; details: male, mouse, plasma, po, P.O. 10 mg/kg
measured-parameter: CL/F (mL/min/kg)
The response must be a number in mL/min/kg with no trailing unit.

Query string: Name the recorded CL/F for C[C@H](NC(=O)c1c(Cc2ccc(F)cc2)sc2c1CCOC2)c1ccc(C(=O)O)cc1 .
Result string: 19.4

====

molecular target: HTR2B (Homo sapiens, UniProt P41595); construct: Pharmaron (Beijing, China), contract laboratory; experiment: GPCR calcium flux assay
Sequence (P41595 whole entry, species assumed): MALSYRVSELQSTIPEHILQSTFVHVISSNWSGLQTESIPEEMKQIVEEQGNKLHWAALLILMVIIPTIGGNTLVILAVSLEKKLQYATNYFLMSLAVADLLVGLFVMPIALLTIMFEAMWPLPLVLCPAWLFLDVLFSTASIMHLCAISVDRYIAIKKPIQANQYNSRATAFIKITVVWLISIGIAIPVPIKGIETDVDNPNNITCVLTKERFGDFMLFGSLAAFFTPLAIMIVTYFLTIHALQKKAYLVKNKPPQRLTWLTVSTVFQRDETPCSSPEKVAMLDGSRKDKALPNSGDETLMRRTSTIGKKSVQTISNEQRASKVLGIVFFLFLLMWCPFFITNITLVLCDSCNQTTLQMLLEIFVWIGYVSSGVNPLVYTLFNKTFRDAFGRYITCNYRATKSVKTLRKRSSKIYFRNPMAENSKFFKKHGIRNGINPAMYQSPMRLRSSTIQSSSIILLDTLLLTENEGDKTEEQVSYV
measured-parameter: IC50 (nM)
Give a bare numeral; the unit nM is implied.

Query string: Recorded IC50 for Cc1nc2sccn2c(=O)c1CCN1CCC(=C(c2ccc(F)cc2)c2ccc(F)cc2)CC1 [Ritanserin, reference compound] , please?
Result string: 30.8

====

biological target: HTR1B (Homo sapiens); assay: LANCE Ultra cAMP assay; conditions: read-out: IC50 (known antagonists, TP-16); HTR1B
Sequence (P28222 whole entry): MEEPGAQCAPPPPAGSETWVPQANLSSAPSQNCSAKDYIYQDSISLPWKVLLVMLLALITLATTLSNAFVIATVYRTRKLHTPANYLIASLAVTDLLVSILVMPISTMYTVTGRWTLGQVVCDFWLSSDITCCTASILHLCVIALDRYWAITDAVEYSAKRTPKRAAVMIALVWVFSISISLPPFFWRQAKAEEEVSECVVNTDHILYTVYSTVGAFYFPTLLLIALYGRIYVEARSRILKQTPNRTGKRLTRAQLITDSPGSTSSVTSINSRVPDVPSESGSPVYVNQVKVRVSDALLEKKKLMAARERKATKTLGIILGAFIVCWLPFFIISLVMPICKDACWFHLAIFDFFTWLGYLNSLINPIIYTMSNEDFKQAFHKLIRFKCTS
Where a name gives a salt, the structure may show the parent alone.
measured-parameter: IC50 (nM)
Report as a plain number; the unit nM is understood.

Query string: If you can, please state the reported IC50 value of CN(C)CCCc1cc(C(=O)Nc2ccc(-c3ccncc3)cc2)ccc1O [GR 55562 dihydrochloride] .
Result string: 35

====

target: CHRM3 (Homo sapiens); construct: Pharmaron (Beijing, China), contract laboratory; assay: GPCR calcium flux assay
Sequence (P20309 whole entry, species assumed): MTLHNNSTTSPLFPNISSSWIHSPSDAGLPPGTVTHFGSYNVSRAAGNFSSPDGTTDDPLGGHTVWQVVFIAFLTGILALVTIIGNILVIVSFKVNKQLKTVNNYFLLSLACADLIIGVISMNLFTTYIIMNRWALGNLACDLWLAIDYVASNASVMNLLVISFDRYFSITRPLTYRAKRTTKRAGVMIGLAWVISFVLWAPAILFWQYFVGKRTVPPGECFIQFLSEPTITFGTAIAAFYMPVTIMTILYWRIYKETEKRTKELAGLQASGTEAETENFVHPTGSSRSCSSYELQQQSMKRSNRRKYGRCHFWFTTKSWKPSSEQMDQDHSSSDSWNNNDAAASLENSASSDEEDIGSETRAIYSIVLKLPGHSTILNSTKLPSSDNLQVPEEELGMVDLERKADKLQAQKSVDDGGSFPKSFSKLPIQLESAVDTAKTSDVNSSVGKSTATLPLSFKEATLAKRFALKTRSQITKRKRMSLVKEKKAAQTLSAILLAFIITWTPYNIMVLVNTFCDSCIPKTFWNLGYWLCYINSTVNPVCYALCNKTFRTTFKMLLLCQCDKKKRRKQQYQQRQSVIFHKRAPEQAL
measured-parameter: IC50

Query string: Using the record for C[C@H](NC(=O)c1c(Cc2ccc(F)cc2)sc2c1CCOC2)c1ccc(C(=O)O)cc1 [TP-16] , report its IC50.
Result string: > 10 µM

====

target: BB1 (Homo sapiens, UniProt P28336); construct: Pharmaron (Beijing, China), contract laboratory; assay: GPCR calcium flux assay
Sequence (P28336 whole entry): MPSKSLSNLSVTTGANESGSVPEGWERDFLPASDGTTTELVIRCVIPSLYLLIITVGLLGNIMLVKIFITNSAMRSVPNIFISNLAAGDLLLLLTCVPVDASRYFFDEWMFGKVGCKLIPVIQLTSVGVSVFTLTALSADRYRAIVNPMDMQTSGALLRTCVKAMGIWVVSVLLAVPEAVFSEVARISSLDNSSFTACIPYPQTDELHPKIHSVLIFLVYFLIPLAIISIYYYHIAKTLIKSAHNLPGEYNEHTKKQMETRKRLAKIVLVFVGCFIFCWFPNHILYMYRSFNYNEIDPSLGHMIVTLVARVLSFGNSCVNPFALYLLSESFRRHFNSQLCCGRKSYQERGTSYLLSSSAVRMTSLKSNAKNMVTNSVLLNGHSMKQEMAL
measured-parameter: IC50

Query string: # get_value(readout='IC50', item= C[C@H](NC(=O)c1c(Cc2ccc(F)cc2)sc2c1CCOC2)c1ccc(C(=O)O)cc1 )
Result string: > 10 µM

====

target: human EP1 (Homo sapiens); assay: PGE2-induced calcium flux assay in CHO-Gα16 cells
Sequence (P34995 whole entry): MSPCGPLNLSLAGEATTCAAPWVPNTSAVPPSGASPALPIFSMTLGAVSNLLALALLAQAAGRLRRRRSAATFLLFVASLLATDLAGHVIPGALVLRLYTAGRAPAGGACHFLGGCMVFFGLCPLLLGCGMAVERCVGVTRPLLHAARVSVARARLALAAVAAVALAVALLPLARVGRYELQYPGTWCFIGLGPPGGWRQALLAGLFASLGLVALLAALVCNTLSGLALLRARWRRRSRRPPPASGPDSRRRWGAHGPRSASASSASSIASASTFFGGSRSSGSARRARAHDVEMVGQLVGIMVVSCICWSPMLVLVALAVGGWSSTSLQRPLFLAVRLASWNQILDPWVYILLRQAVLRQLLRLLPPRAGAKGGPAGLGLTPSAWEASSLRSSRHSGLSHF
pIC50: −log10 of the molar value.
measured-parameter: pIC50

Query string: Given the entry C[C@H](NC(=O)c1c(Cc2ccc(F)cc2)sc2c1CCOC2)c1ccc(C(=O)O)cc1 [TP-16] , report its measured pIC50.
Result string: < 5.00

====

molecular target: ADORA3 (Homo sapiens); construct: Pharmaron (Beijing, China) performed the assay; assay: LANCE Ultra cAMP assay; assay type: cell-based
Sequence (P0DMS8 whole entry, species assumed): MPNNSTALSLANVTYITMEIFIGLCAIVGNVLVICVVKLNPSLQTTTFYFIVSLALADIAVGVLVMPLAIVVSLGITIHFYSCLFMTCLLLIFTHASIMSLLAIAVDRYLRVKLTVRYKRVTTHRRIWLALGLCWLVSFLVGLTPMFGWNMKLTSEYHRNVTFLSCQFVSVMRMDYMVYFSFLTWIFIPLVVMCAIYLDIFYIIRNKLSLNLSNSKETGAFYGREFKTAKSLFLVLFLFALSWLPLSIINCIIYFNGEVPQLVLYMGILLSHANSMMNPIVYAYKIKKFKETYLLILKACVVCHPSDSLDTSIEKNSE
pIC50: −log10 of the molar value.
measured-parameter: pIC50

Query string: // lookup pIC50 | system=ADORA3 (Homo sapiens) | key= C[C@H](NC(=O)c1c(Cc2ccc(F)cc2)sc2c1CCOC2)c1ccc(C(=O)O)cc1
Result string: < 5.00

====

test: Pharmacokinetics in CD1 mice; type: in vivo, mouse; conditions: male, mouse, plasma, po, P.O. 10 mg/kg
measured-parameter: AUC(0-inf) (ng·h/mL)
Give a bare numeral; the unit ng·h/mL is implied.

Query string: What measured AUC(0-inf) goes with C[C@H](NC(=O)c1c(Cc2ccc(F)cc2)sc2c1CCOC2)c1ccc(C(=O)O)cc1 [TP-16] ?
Result string: 8580

====

assay: In vitro metabolic stability using liver microsome; format: in vitro ADME; conditions: liver microsomes; human liver microsome; read-out: Scale-up Clint
measured-parameter: CLint scaled

Query string: // returns reported CLint scaled for input C[C@H](NC(=O)c1c(Cc2ccc(F)cc2)sc2c1CCOC2)c1ccc(C(=O)O)cc1 [TP-16]
Result string: < 6.07 mL/min/kg

====

experiment: Pharmacokinetics in CD1 mice; type: in vivo, mouse; conditions: male, mouse, plasma, po, P.O. 10 mg/kg
measured-parameter: Cmax (ng/mL)
Reply with just the number (in ng/mL).

Query string: Entry C[C@H](NC(=O)c1c(Cc2ccc(F)cc2)sc2c1CCOC2)c1ccc(C(=O)O)cc1 [TP-16] has what Cmax?
Result string: 3850

====

assay: In vitro metabolic stability using liver microsome; assay type: in vitro ADME; conditions: human, liver microsomes, read-out: Predicted hepatic Clint
measured-parameter: CLhep predicted

Query string: Which CLhep predicted is listed for C[C@H](NC(=O)c1c(Cc2ccc(F)cc2)sc2c1CCOC2)c1ccc(C(=O)O)cc1 [TP-16] ?
Result string: < 4.69 mL/min/kg

====

biological target: DRD2 (Homo sapiens); assay: LANCE Ultra cAMP assay
Sequence (P14416 whole entry, species assumed): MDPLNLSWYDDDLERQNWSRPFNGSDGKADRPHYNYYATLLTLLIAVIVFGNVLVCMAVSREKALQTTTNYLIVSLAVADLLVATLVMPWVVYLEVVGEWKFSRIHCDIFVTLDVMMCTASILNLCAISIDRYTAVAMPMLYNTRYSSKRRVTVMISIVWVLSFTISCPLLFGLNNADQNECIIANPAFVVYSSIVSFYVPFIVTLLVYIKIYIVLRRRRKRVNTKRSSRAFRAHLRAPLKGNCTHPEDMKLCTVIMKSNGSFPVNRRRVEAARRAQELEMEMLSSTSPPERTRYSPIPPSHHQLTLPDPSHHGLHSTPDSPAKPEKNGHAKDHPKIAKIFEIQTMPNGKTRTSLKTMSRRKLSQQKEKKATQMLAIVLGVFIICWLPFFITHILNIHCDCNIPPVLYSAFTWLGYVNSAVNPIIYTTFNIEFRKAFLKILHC
pIC50: −log10 of the molar value.
measured-parameter: pIC50

Query string: What does the data say about its pIC50? Entry: C[C@H](NC(=O)c1c(Cc2ccc(F)cc2)sc2c1CCOC2)c1ccc(C(=O)O)cc1
Result string: < 5.00

====

molecular target: ADRA1D (Homo sapiens, UniProt P25100); construct: Pharmaron (Beijing, China) performed the assay; assay: GPCR calcium flux assay
Sequence (P25100 whole entry, species assumed): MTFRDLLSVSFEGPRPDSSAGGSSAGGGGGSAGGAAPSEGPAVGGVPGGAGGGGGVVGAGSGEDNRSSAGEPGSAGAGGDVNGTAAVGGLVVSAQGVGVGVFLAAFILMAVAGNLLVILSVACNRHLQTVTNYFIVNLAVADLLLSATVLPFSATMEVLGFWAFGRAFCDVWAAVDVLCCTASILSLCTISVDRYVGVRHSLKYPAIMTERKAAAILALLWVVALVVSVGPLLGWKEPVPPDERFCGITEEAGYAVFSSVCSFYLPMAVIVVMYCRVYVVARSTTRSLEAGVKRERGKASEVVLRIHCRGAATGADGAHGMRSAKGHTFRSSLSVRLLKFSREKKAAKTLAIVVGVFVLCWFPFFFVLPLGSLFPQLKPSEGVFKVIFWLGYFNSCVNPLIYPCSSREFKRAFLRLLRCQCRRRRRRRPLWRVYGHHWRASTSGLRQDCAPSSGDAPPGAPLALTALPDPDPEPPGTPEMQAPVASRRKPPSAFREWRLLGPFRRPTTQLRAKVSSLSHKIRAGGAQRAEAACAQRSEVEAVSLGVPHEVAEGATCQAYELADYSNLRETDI
measured-parameter: IC50

Query string: # input compound: C[C@H](NC(=O)c1c(Cc2ccc(F)cc2)sc2c1CCOC2)c1ccc(C(=O)O)cc1 [TP-16] ; wanted: its IC50
Result string: > 10 µM

====

biological target: CHRM2 (Homo sapiens); construct: Pharmaron (Beijing, China), contract laboratory; assay: GPCR calcium flux assay
Sequence (P08172 whole entry, species assumed): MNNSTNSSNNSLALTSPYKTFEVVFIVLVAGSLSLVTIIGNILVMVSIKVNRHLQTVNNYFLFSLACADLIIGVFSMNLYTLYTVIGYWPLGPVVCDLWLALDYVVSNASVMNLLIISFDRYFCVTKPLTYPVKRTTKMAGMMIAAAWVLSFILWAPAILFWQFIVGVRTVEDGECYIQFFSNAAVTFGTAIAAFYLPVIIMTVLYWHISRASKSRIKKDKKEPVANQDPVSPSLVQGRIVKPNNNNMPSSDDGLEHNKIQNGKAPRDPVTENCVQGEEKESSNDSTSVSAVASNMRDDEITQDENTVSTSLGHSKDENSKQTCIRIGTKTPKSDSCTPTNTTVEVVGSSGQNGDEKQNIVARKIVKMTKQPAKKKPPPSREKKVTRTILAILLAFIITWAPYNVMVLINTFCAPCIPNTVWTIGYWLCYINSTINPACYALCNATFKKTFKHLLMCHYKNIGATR
pIC50: −log10 of the molar value.
measured-parameter: pIC50

Query string: Which pIC50 value belongs to C[C@H](NC(=O)c1c(Cc2ccc(F)cc2)sc2c1CCOC2)c1ccc(C(=O)O)cc1 ?
Result string: < 5.00

====

experiment: In vitro metabolic stability using liver microsome; format: in vitro ADME; details: liver microsomes; mouse liver microsome; read-out: In vitro T1/2
measured-parameter: half-life

Query string: Query: half-life; subject: C[C@H](NC(=O)c1c(Cc2ccc(F)cc2)sc2c1CCOC2)c1ccc(C(=O)O)cc1 [TP-16]
Result string: 3.92 h

====

Biological target: AT1 (Homo sapiens, UniProt P30556)
Construct: Pharmaron (Beijing, China), contract laboratory
Sequence (P30556 1-359): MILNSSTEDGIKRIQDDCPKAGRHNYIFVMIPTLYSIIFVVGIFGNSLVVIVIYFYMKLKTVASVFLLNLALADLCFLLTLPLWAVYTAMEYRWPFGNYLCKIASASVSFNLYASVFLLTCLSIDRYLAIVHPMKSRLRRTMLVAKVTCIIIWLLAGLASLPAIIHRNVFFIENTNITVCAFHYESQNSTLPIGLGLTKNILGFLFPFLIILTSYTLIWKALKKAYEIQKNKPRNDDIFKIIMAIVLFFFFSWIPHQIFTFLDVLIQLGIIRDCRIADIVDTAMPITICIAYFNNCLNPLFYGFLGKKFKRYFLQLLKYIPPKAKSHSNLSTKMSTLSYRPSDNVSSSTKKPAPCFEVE
Assay: GPCR calcium flux assay
measured-parameter: IC50

Query string: Form: Entry = C[C@H](NC(=O)c1c(Cc2ccc(F)cc2)sc2c1CCOC2)c1ccc(C(=O)O)cc1 | System = AT1 (Homo sapiens, UniProt P30556) | IC50 = ____
Result string: > 10 µM

====

target: ADORA2B (Homo sapiens); assay: LANCE Ultra cAMP assay
measured-parameter: IC50

Query string: Find the recorded IC50 belonging to C[C@H](NC(=O)c1c(Cc2ccc(F)cc2)sc2c1CCOC2)c1ccc(C(=O)O)cc1 [TP-16] and report it.
Result string: > 10 µM

====

assay: In vitro metabolic stability using liver microsome; format: in vitro ADME; details: liver microsomes; human liver microsome; read-out: In vitro T1/2
measured-parameter: half-life

Query string: Data request, read-out half-life, for C[C@H](NC(=O)c1c(Cc2ccc(F)cc2)sc2c1CCOC2)c1ccc(C(=O)O)cc1 [TP-16]
Result string: > 9.68 h

====

molecular target: human EP3 (Homo sapiens, UniProt P43115); experiment: PGE2-induced calcium flux assay in CHO-Gα16 cells
Sequence (P43115 1-359 limits assumed): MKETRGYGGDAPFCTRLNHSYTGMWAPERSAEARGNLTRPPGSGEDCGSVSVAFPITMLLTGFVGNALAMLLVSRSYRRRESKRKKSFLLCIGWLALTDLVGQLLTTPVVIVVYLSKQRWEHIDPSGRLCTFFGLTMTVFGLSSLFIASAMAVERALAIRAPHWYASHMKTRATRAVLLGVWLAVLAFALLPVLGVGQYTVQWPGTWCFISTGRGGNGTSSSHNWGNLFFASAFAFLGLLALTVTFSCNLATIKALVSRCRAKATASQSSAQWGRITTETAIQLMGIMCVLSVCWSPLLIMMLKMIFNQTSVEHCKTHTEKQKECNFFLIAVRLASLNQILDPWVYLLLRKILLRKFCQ
measured-parameter: IC50

Query string: Look up IC50 with human EP3 (Homo sapiens, UniProt P43115) for this molecule: C[C@H](NC(=O)c1c(Cc2ccc(F)cc2)sc2c1CCOC2)c1ccc(C(=O)O)cc1
Result string: > 10 µM

====

target: OPRK1 (Homo sapiens); construct: Pharmaron (Beijing, China), contract laboratory; assay: GPCR calcium flux assay
Sequence (P41145 whole entry, species assumed): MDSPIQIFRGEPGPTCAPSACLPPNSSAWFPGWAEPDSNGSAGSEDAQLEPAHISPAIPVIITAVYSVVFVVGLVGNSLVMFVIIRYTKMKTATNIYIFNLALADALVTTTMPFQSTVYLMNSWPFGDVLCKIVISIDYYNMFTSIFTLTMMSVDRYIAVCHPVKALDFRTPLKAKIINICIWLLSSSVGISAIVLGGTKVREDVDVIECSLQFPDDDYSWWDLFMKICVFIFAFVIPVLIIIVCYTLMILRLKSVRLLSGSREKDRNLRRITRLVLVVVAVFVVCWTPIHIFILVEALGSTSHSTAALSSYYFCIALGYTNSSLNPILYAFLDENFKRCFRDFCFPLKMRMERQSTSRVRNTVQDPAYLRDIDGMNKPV
measured-parameter: IC50

Query string: Given the entry C[C@H](NC(=O)c1c(Cc2ccc(F)cc2)sc2c1CCOC2)c1ccc(C(=O)O)cc1 , report its measured IC50.
Result string: > 10 µM

====

Target: AODRA1 (Homo sapiens)
Sequence (P30542 1-326): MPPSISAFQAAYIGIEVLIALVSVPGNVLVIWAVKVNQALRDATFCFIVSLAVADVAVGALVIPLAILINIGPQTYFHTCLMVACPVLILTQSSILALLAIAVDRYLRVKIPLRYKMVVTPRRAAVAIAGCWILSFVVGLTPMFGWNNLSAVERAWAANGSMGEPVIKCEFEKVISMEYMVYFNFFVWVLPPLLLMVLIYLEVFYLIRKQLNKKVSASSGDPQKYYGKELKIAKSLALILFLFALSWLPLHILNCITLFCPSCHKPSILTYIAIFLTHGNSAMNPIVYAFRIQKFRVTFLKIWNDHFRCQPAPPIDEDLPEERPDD
Experiment: LANCE Ultra cAMP assay
pIC50: −log10 of the molar value.
measured-parameter: pIC50

Query string: Which measured pIC50 value corresponds to C[C@H](NC(=O)c1c(Cc2ccc(F)cc2)sc2c1CCOC2)c1ccc(C(=O)O)cc1 ?
Result string: < 5.00
